TARGET_ENTITY: CD45 (Homo sapiens, UniProt P08575)
Sequence (P08575 653-912 limits assumed): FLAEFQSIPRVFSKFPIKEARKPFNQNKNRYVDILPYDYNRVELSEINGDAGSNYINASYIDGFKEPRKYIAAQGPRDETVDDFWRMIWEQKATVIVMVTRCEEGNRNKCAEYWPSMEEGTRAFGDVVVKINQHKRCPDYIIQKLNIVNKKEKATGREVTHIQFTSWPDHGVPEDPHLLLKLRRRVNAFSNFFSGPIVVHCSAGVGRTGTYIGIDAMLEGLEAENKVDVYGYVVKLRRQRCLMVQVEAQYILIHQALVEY
ASSAY_SUMMARY: PTP inhibitory activity (p-NPP degradation), CD45
CONDITION_INFO: p-NPP substrate, 37 °C, 30 min, 405 nm; mean ± SD, n = 3
ASSAY_METRIC: IC50 (µM)
Give just the numeric value; µM need not be written.

These recorded examples may help you get a feel for the data.
given_smiles=Cc1cc(Oc2cc(O)cc(C)c2C(=O)O)cc(O)c1C(=O)O reported=4.46
given_smiles=Cc1cc(O)cc(OC(=O)c2c(C)cc(O)cc2O)c1 reported=7.4

Okay, now this compound:
Request: Fill blank: measured IC50 of the compound Cc1cc(O)cc(Oc2cc(C)cc(O)c2)c1 is ____.
Response: 4.03

---

System: nematode
ASSAY_SUMMARY: anti-nematode activity
pIC50: −log10 of the molar value.
ASSAY_METRIC: pIC50

Request: Fill blank: measured pIC50 of the compound Cc1cc(Oc2cc(O)cc(C)c2C(=O)O)cc(O)c1C(=O)O [Compound A13, diorcinol acid] is ____.
Response: < 4.00

Request: Fill blank: measured pIC50 of the compound Cc1cc(O)cc(Oc2cc(C)cc(O)c2)c1 [Compound A3, diorcinol] is ____.
Response: 4.30

Request: Fill blank: measured pIC50 of the compound Cc1cc(O)cc(OC(=O)c2c(C)cc(O)cc2O)c1 [Compound A9, lecanorin] is ____.
Response: < 4.00

Request: Fill blank: measured pIC50 of the compound C/C(=C\CCC(C)C)c1ccc(CO)cc1O [Compound A4, aspergillusene A] is ____.
Response: < 4.00

---

pIC50 overview
TARGET_ENTITY: PTP1B (Homo sapiens)
Construct: incubated at 37 °C with 2.5 μg domain protein
Sequence (P18031 3-277 limits assumed): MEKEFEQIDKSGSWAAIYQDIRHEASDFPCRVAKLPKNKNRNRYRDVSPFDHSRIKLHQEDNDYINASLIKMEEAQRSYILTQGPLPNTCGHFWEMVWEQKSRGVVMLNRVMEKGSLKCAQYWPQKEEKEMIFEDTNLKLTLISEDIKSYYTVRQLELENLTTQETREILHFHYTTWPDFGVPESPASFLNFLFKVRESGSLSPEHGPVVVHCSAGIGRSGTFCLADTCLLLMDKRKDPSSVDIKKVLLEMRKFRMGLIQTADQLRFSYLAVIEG
ASSAY_SUMMARY: PTP inhibitory activity (p-NPP degradation), PTP1B
CONDITION_INFO: p-NPP substrate, 37 °C, 30 min, 405 nm; mean ± SD, n = 3
Keep in mind that pIC50 stands for -log10 of concentration in molar terms.

given_smiles=Cc1cc(O)cc(OC(=O)c2c(C)cc(O)cc2O)c1 reported=5.12

Request: Fill blank: measured pIC50 of the molecule C/C(=C\CCC(C)C)c1ccc(CO)cc1O is ____.
Response: 5.02

---

IC50 overview
TARGET_ENTITY: SHP1 (Homo sapiens, UniProt P29350)
Construct: incubated at 37 °C with 2.5 μg domain protein
Sequence (P29350 244-515 limits assumed): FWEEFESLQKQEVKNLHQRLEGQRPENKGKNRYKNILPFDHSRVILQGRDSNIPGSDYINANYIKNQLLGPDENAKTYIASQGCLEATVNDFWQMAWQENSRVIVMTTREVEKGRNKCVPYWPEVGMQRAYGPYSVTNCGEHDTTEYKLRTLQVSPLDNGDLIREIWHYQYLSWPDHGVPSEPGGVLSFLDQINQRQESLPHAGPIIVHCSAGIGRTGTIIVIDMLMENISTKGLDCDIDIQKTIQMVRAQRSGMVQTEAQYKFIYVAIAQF
ASSAY_SUMMARY: PTP inhibitory activity (p-NPP degradation), SHP1
Format: biochemical
CONDITION_INFO: p-NPP substrate, 37 °C, 30 min, 405 nm; mean ± SD, n = 3
Give just the numeric value; µM need not be written.

given_smiles=Cc1cc(O)cc(OC(=O)c2c(C)cc(O)cc2O)c1 target_entity="SHP1 (Homo sapiens, UniProt P29350)" assay_metric=IC50 reported=6.01

Request: Fill blank: measured IC50 of the molecule C/C(=C\CCC(C)C)c1ccc(CO)cc1O is ____.
Response: 8.69

Request: Fill blank: measured IC50 of the molecule Cc1cc(Oc2cc(O)cc(C)c2C(=O)O)cc(O)c1C(=O)O is ____.
Response: 2.16

Request: Fill blank: measured IC50 of the molecule Cc1cc(O)cc(Oc2cc(C)cc(O)c2)c1 is ____.
Response: 0.96
